target_or_test_system: T1, corticotropin releasing factor 2 receptor
T1 sequence (Q13324 whole entry, species assumed, looked up): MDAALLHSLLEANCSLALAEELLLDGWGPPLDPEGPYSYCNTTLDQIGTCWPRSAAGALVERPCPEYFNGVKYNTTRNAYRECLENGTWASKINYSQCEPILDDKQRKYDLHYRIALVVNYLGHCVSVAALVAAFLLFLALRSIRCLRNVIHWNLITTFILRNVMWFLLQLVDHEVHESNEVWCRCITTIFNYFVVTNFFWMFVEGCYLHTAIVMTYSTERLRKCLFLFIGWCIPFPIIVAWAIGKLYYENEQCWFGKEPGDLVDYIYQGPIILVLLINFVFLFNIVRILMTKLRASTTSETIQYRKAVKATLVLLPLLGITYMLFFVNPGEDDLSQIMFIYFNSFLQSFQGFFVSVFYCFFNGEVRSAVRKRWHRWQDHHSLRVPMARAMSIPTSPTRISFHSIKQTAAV
assay_name: cell-based or functional assay
Ends that are not written are not given here.
Give CRF2R EC50 for every item shown.
Numbers only, in nM.

Answered cases to consult:
In [3]: df
Out[3]:
                                     binder  test_result
0  NDDPPISIDLPLHLLRNMIEMARIENEREQAGLNAKYLAEV-NH2 [SEQ ID NO 259]          100
1  ZGPPISIDLPFYLLRKMIEIEKQEKEKQQAANNALLLDTI (C-terminal amide) [SEQ ID NO 230]          8.1

Dear reader, for each entry below, please note its CRF2R EC50.
1. ZGPPISIDLPLQLLRKVIEIEKQEKEKQQATTNARILARV (C-terminal amide) [SEQ ID NO 320]
2. ZGPPISIDLPFQLLRKMIEIEKQEKEKQQAANNRLLLATI (C-terminal amide) [SEQ ID NO 250]

19.1
19.7

Please give CRF2R EC50 for each item listed below.
1. DNPSLSIDLPLLLLRTLLELEKTQSQRERAEQNAEIFAEV-NH2 [SEQ ID NO 323]
2. ZGPPISIDVPFQLLRKMIEIEKQEKEKQQAANNRLLLDTI (C-terminal amide) [SEQ ID NO 256]
3. ZGPPISIDLPFQLLRKVIEIEKQEKEKQQAANNAELLAEI (C-terminal amide) [SEQ ID NO 272]
4. ZGPPISIDLPIFLLRKVIEIEKQEKEKQQAANNARLLARI (C-terminal amide) [SEQ ID NO 281]
5. PSLSIDLPLLLLRTLLELEKTQSQRERAEQNARIFARV-NH2 [SEQ ID NO 333]
6. DNPSLSIDLPLFLLRTLLELARTQSQRERAEQNARIFARV-NH2 [SEQ ID NO 329]

1. 19.6
2. 12.6
3. 23.3
4. 100
5. 9.85
6. 5.15

Reference for the values: patent US20030148956A1
